System: NCI-H322M lung
Experiment: NCI-60 one-dose screen, 48 h (100 = growth as untreated, 0 = no growth, -100 = all killed)
Conditions: 10 µM unless noted
About 83,000 compounds went through this panel and 20% of them were active in at least one assay; those are over-represented in the sample as a whole.
Mark Not fulfilled for growth values under 70%, and Fulfilled for everything at or above.

Molecule	Assigned Label
NC(=O)CNc1ccc([As]=[As]c2ccc(NCC(N)=O)cc2)cc1 (centres undefined)	Fulfilled
CC1(C)N=C(N)N=C(N)N1c1ccc(CCCCc2ccc(Cl)c(S(=O)(=O)F)c2)c(Cl)c1	Not fulfilled
O=C1OCCC1Br (centres undefined)	Fulfilled
Cc1cccc(N2CCN(C(C)C#N)CC2)c1 (centres undefined)	Fulfilled
COC(=O)[C@H](Cc1ccccc1)NC(=O)c1csc([C@@H](C[C@H](C(C)C)N(C)C(=O)[C@@H](NC(=O)[C@H]2CCCN2C)C2CC2)OC(C)=O)n1	Not fulfilled
CN1C(=O)C23CC4(C56CC78SSC(CO)(C(=O)N7C5Nc5ccccc56)N(C)C8=O)c5ccccc5NC4N2C(=O)C1(CO)SS3 (centres undefined)	Not fulfilled
CC(=O)c1ccc(C(=O)NCC2CCC3(CC2)OOC2(CCCCC2)OO3)cc1	Fulfilled
COc1cc([C@@H]2c3cc4c(cc3[C@H](OC(C)=O)[C@H]3COC(=O)[C@H]23)OCO4)cc(OC)c1OC	Not fulfilled
COc1ccc2c(c1)c(-c1nc(-c3c[nH]c4ncccc34)cs1)cn2CCCCN1CCCCC1	Not fulfilled
CC[C@]12C=CCN3CC[C@]4(C(=C(C(=O)OC)C1)Nc1cc(OC)c(OC(C)=O)cc14)[C@@H]32	Not fulfilled
O=C([O][Hg][c]1ccccc1)c1ccccc1	Not fulfilled
Oc1ccc2c3c1OC1[C@@H](O)CC[C@@]4(O)[C@@H](C2)N(CC2CCC2)CC[C@]314 (some centres undefined)	Fulfilled
COc1cc(C=Nc2cccc(Br)c2)ccc1N(CCCl)CCCl	Fulfilled
O=C1C2C(C(=O)[N]1[Hg][c]1cccs1)C1(Cl)C(Cl)=C(Cl)C2(Cl)C1(Cl)Cl (centres undefined)	Fulfilled
O=C(O)C(Cl)(Cl)C(F)(F)F	Fulfilled
COc1cccc(/C=C/[N+](=O)[O-])c1	Fulfilled
ClCCN(CCCl)c1ccc(/C=N\N=C\c2ccc(N(CCCl)CCCl)cc2)cc1	Fulfilled

---

System: BT-549 breast
Test: NCI-60 one-dose screen, 48 h
Conditions: 10 µM unless noted
Compounds without any hit were thinned out: in the full panel of roughly 83,000, 20% have a hit. Active and inactive are the calls of the source. How the source made its calls: active means growth percent below 10; inactive means the rest.
Classes used: Yes for active, No for inactive

Molecule	Assigned Label
OCCCCCNC1CCCCC1	No
C/C1=C/C(=O)O[C@@H]2C[C@@H](CC[C@H](C)/C=C\C=C\CC1)O[C@@](O)([C@@H]1CSC(=O)N1CO)C2	Yes
Oc1ccc2c3c1OC1[C@@H](O)CC[C@@]4(O)[C@@H](C2)N(CC2CCC2)CC[C@]314 (stereo partly specified)	No
CO[C@H](C(=O)O)[C@@H]1Cc2cc3cc(OC4CC(OC5CC(O)C(O)C(C)O5)C(O)C(C)O4)c(C)c(O)c3c(O)c2C(=O)[C@H]1OC1CC(OC2CC(OC3CC(C)(O)C(O)C(C)O3)C(O)C(C)O2)C(O)C(C)O1 (stereo partly specified)	Yes
COC(=O)[C@@H](C)C[C@H](Cc1ccccc1)NC(=O)c1csc([C@@H](C[C@H](C(C)C)N(C)C(=O)[C@@H](NC(=O)[C@H]2CCCCN2C)C(C)C)OC(C)=O)n1	Yes
C=CCCCN=C=S	No
CCCCCCCOC(C(=O)OCCN(CC)CC)(c1ccccc1)c1ccccc1	No
CC[C@H](C)[C@H](NC(=O)NC(C)(C)C)C(=O)N(C)[C@H](C[C@@H](OC(C)=O)c1nc(C(=O)N[C@@H](Cc2ccccc2)C[C@H](C)C(=O)OC)cs1)C(C)C	Yes
Cn1cccc1C1CC(=O)N(CCC[Se]C#N)C1=O (stereo unspecified)	Yes
Fc1c[c-]c(-c2ccccn2)c(F)c1.[CH3-].[Pt+2].c1ccc([PH+](c2ccccc2)c2ccccn2)cc1	Yes
CC(=O)O[C@H](C[C@H](C(C)C)N(C)C(=O)[C@@H](NC(=O)[C@H]1CCCCN1C)C(C)(C)C)c1nc(C(=O)N[C@@H](Cc2ccccc2)C[C@H](C)C(=O)O)cs1	Yes
Cc1ccc(C(=O)NCCCOc2ccc(N)cc2Cl)cc1S(=O)(=O)F	No
CNC(=O)Oc1cccc(C(F)(F)F)c1	No
ClCCN(CCCl)c1nc(Cl)c(C2CC(c3ccccc3)=NN2c2cc(Cl)cc(Cl)c2)s1 (stereo unspecified)	No
COc1ccc(N(CC(=O)NCCC[Te]c2ccccc2)C(=O)CCSC2=C(C)C(=O)c3ccccc3C2=O)cc1	Yes
COC(=O)[C@@H](C)C[C@H](Cc1ccccc1)NC(=O)c1csc(CC[C@H](C(C)C)N(C)C(=O)[C@@H](NC(=O)[C@H]2CCCCN2C)C(C)C)n1	Yes
